B1: LINE1-full (parent)
chain: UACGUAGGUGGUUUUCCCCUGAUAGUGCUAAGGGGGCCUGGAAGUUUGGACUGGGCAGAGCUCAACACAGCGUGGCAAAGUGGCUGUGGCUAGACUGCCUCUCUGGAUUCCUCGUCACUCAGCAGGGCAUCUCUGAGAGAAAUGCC

# Variants of: B1
# test_details: self-cleavage, relative activity (ratio to wild type); higher = more cleavage; in vitro, sequencing; the parent is a self-cleaving ribozyme
Use True when the recorded self-cleavage is no lower than 1; use False when it is lower.

# change, label
records = [
    ("G70U U112C", "False"),
    ("U9A A69U", "False"),
    ("A94U A142C", "False"),
    ("U15C G106A", "True"),
    ("U39C G139A", "False"),
    ("U39A A124G", "False"),
    ("A2G U134C", "True"),
    ("A2G G34C", "False"),
    ("G34A A141G", "True"),
    ("C84U A121U", "False"),
    ("C28A A129G", "True"),
]
